TARGET_DESC: Human FXIa (Homo sapiens, UniProt P03951)
Construct: Human FXIa (Enzyme Research Laboratories) was incubated; purchased Enzyme Research Laboratories
Sequence (P03951 388-625 limits assumed): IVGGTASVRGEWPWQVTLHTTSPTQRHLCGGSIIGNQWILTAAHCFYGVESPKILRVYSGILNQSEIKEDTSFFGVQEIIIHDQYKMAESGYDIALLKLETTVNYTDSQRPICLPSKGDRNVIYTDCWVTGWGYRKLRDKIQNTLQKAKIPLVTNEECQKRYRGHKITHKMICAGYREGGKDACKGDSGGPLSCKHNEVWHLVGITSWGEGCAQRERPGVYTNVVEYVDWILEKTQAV
Sequence (P03951 19-387 partner limits assumed): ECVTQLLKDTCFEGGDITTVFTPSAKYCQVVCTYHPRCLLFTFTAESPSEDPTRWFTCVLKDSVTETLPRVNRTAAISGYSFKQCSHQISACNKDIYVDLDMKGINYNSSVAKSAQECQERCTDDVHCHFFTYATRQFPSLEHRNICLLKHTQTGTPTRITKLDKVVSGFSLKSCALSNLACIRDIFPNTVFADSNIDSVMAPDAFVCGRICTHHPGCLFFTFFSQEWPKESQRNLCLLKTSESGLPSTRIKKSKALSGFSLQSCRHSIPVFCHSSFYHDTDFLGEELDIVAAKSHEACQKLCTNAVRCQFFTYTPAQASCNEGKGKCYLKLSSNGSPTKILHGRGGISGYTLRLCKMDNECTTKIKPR
ASSAY_EXPLANATION: FXIa inhibitory activity in vitro (fluorogenic substrate Z-Gly-Pro-Arg-AFC), selectivity
Assay type: biochemical
CONDITIONS: category scale, 25° C.
pIC50: −log10 of the molar value.
ATTRIBUTE_MEASURED: pIC50

Below: 3 compounds and their reported pIC50.
COMPOUND	ATTRIBUTE_MEASURED	RESULT
N[C@H](CCCCN1CCc2ccccc2C1)C(=O)N1CC[C@H]1C(=O)NCc1ccc2[nH]cc(Cl)c2c1	pIC50	< 4.40
C[C@H](NC(=O)[C@@H](CCc1ccccc1)NC1CCCCC1)C(=O)NCc1ccc2c(N)nccc2c1	pIC50	6.00 to 6.52
Nc1nccc2cc(CNC(=O)CNC(=O)c3ccc(N4CCOCC4)cc3)ccc12	pIC50	< 4.40

pIC50 measured on Nc1nccc2cc(CNC(=O)CNC(=O)C(CCc3ccccc3)N3CCNCC3)ccc12 (stereo not shown) = < 4.40
